Target: p110 delta (Homo sapiens (Human), UniProt O00329)
Sequence (O00329 whole entry, canonical isoform): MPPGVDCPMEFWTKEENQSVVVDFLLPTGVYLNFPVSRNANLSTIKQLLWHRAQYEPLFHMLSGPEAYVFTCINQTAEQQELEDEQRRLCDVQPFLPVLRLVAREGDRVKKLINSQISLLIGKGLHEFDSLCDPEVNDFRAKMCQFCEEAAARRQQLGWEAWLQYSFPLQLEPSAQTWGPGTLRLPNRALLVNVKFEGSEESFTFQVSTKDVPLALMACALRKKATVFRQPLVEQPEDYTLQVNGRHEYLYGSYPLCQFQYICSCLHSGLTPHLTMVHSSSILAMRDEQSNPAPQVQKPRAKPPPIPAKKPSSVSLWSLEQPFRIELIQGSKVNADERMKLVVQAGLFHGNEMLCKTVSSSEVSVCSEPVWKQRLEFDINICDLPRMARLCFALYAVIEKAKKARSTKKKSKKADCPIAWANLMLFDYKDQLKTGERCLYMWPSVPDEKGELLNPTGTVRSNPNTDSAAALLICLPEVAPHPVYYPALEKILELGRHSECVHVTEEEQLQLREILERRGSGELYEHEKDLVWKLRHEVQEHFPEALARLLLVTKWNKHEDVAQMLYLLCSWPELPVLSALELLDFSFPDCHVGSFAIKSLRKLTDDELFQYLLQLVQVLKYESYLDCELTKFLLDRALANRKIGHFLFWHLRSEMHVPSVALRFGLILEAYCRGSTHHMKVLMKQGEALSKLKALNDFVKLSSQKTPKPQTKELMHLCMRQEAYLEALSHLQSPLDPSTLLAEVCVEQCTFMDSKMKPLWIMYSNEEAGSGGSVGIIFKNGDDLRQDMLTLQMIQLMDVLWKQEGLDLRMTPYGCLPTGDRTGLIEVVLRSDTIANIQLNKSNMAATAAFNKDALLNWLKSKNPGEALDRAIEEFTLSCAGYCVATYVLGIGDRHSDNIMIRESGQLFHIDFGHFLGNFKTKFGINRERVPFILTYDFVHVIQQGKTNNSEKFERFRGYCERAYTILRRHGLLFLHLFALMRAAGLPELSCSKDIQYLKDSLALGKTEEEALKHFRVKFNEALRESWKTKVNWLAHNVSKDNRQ
Sequence (P27986 whole entry partner, canonical isoform): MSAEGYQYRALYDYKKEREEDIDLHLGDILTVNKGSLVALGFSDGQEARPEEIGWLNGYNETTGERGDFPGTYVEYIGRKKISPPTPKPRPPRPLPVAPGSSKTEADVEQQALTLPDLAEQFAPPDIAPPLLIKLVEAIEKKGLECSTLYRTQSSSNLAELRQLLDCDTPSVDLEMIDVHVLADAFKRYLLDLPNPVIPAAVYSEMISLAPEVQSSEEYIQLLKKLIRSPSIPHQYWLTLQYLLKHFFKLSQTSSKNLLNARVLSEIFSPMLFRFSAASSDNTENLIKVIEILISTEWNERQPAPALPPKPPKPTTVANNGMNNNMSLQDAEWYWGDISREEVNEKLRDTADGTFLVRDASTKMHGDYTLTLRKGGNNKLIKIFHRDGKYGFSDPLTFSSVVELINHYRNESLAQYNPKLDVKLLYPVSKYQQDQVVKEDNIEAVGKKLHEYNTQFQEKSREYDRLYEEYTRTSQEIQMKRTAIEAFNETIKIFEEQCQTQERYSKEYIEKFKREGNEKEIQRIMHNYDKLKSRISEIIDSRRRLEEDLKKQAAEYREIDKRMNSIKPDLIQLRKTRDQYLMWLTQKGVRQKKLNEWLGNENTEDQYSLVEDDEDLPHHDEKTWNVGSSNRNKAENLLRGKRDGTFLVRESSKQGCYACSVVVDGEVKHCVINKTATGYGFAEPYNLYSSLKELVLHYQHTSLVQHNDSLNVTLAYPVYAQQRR
Test: PI3K isoform inhibition assay, p110 delta (fluorescence polarization displacement)
pIC50: −log10 of the molar value.
Binary classification by pIC50, with 9 as an inclusive lower bound for yes (1); all other cases are no (0).

Hello, I need to know if Cc1nc(-c2cn3c(n2)-c2ccc(N4CCCC4C4CCN(CC(C)(C)O)CC4)cc2OCC3)n(C(C)C)n1 (stereo not shown) [Example 274] has measured pIC50 not below 9. Thanks!
no (0)

Another compound: Cc1nc(-c2cn3c(n2)-c2ccc(N4CCC[C@@H]4CN4CCCC4)cc2OCC3)n(C(C)C)n1
yes (1)

Another compound: Cc1nc(-c2cn3c(n2)-c2cc(-c4ccnn4[C@H]4CCCN(C5COC5)C4)c(F)cc2OCC3)n(C(C)C)n1
no (0)

Another compound: Cc1nc(-c2cn3c(n2)-c2cc([C@H](C)N4CCN(C(C)(C)C)CC4)ncc2OCC3)n(C(C)C)n1
no (0)
